Reference source: PubChem BioAssay AID1159580

- Experimental details: chemical genetic growth profiling, strain panel (AID 1159580);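 further: tested at 20 µM; growth read once vehicle control cultures reached saturation at 30 °C; 1 = growth at the plate median or of vehicle wells; lower values mean less growth of the strain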
- Condition parameters: S. cerevisiae deletion strains, growth OD, locus YDL214C, strain PRR2, hits give low values
Out of some 5,500 compounds screened, about 2,000 (36%) were called active. Not shown: some 18% with an inconclusive outcome. The list shows a part of the results.
Consider the cut-off 0.9. If the recorded normalized growth is strictly smaller, the label is 1.0; if not, the label is 0.0.

[
  {
    "Compound": "Cc1nnc2n1N=C(c1ccc(CC(C)C)cc1)C(C)S2 (stereo unspecified)",
    "Class": 0.0
  },
  {
    "Compound": "Cc1cc(Oc2ccc(C(F)(F)F)cc2NS(C)(=O)=O)cc(C)c1Cl",
    "Class": 0.0
  },
  {
    "Compound": "COCCCNC(=S)N/N=C\\c1cc(Cl)cc(Cl)c1O",
    "Class": 0.0
  },
  {
    "Compound": "CC(NC(=S)N/N=C\\c1ccccc1O)c1ccccc1 (stereo unspecified)",
    "Class": 0.0
  },
  {
    "Compound": "CC(C)(C)C(=O)NC(=S)N/N=C\\c1cc(Cl)cc(Cl)c1O",
    "Class": 1.0
  },
  {
    "Compound": "CCCCNC(=S)N/N=C\\c1cc(Cl)cc(Cl)c1O",
    "Class": 1.0
  }
]
